Some compounds, each annotated with its measured inhibition.
Assay: HD-MB03 medulloblastoma cell growth inhibition, synergistic combos for chromothripsis tumors, BGB or cisplatin IC20 combos (AID 1671455);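 also: 0% = vehicle DMSO and 100% = high DMSO as cytotoxic control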
Settings: HD-MB03 medulloblastoma cells, measured here: combo with cisplatin at IC20, at 0.5 µM, stronger effect = higher value

Solved cases below.
O=c1c(O)c(-c2ccc(O)c(O)c2)oc2cc(O)ccc12 :: -0.856%
COc1c2ccoc2cc2oc(=O)ccc12 :: -2.34%
O=c1[nH]c(=O)n([C@H]2C[C@H](O)[C@@H](CO)O2)cc1C(F)(F)F :: 72.4%
CN(N=O)C(=O)NC1C(O)OC(CO)C(O)C1O (stereo not drawn) :: -22.4%
CN1C[C@@H]2C[C@H]1CN2c1cc2c(cc1F)c(=O)c(C(=O)O)cn2C1CC1 :: -20.6%
N=c1ccn2c(n1)O[C@H]1[C@H](O)[C@@H](CO)O[C@H]12 :: 91.1%
C[C@@H](CN1CC(=O)NC(=O)C1)N1CC(=O)NC(=O)C1 :: -12.8%
O=C(CCCCCCC(=O)Nc1ccccc1)NO :: 48.3%
O=c1[nH]c(=O)n([C@H]2C[C@H](O)[C@@H](CO)O2)cc1Br :: 32.3%
O=c1cc[nH]c(=O)[nH]1 :: -22.4%

Enquiry: Param item = CN1CCN(c2c(F)cc3c(=O)c(C(=O)O)cn(CCF)c3c2F)CC1 ; retrieve measured inhibition.
Return: 5.72%

Enquiry: // lookup inhibition for Nc1ccc2cc3ccc(N)cc3nc2c1
Return: -34.6%

Enquiry: Endpoint output: inhibition of CN1CCN(c2c(F)cc3c(=O)c(C(=O)O)cn4c3c2OCN4C)CC1 . Value?
Return: 0.073%

// provenance: PubChem BioAssay
